assayExplanation: NCI Yeast Anticancer Drug Screen. Data for the sgs1 strain (AID 173);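 note: 0% = growth of vehicle-only control cultures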
conditionNotes: S. cerevisiae sgs1 mutant, at 3.7 µM, hits give high values
Procedure: Growth inhibition of yeast strains with defined genetic alterations is measured as a screen for potential anti-cancer activity. Selected strains with alterations in DNA damage repair or cell cycle control were exposed to compounds and growth inhibition was measured relative to vehicle treated controls. The strain used in this assay is sgs1
Compounds without any hit were thinned out: in the full panel of roughly 79,000, 15% have a hit.
This section presents compounds with their documented growth inhibition values.
Write the answer as a number in %, unit excluded.

CCCc1[nH]nc(C(N)=O)c1N=NN(C)C | -3
N#CC(=S)Nc1cccc(Cl)c1 | 7
O=C1CSC(=S)N1Cc1ccc(Cl)cc1Cl | 33
O=C(/C=C/c1cccc(Br)c1)c1ccc(Cl)cc1 | -42
CN(NC(=O)/C(=C/c1ccc(O)cc1)NC(=O)c1ccccc1)c1ccnc2cc(Cl)ccc12 | 4
Cc1ccc2occ/c(=N\Nc3ccccc3)c2c1 | -4

## Task # get_value(readout='growth inhibition', item= O=c1[nH]c2ccccc2c2nc3ccccc3n12 )
## Result -58
